- Tested Target: T1, IL-18R on HEK-Blue IL18R reporter cells (InvivoGen, #hkb-hmi118) (UniProt Q13478 19-541; O95256 20-599, limits assumed)
- T1 sequence (looked up) 1: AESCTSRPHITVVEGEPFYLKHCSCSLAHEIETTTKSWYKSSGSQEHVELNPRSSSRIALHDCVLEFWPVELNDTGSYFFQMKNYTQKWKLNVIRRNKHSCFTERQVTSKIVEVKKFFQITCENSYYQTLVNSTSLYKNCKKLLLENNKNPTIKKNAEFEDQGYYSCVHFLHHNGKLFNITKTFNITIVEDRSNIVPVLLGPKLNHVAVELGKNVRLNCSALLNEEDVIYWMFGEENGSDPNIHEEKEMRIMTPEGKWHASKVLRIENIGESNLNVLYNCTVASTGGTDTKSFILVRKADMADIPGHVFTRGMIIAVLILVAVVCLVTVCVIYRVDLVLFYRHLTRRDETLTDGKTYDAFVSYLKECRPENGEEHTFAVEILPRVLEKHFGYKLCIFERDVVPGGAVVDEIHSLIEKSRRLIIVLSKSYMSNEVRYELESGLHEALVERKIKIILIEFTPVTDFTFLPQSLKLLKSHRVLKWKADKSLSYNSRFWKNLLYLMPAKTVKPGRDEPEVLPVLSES
- T1 sequence (looked up) 2: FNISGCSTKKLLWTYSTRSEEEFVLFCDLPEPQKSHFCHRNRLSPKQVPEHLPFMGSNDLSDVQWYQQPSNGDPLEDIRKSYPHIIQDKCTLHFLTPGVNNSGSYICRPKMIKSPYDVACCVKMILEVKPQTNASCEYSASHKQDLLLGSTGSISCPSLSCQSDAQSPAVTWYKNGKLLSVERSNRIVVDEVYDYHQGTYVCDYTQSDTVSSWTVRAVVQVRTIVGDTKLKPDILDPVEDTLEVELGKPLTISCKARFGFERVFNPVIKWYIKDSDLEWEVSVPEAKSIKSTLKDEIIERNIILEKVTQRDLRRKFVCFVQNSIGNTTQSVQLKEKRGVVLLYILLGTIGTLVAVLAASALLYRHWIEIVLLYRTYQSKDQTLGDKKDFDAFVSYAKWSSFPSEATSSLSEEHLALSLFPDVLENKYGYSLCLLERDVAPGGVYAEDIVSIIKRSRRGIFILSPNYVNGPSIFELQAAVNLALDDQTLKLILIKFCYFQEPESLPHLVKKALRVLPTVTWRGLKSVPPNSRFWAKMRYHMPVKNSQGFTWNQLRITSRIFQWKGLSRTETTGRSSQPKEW
- Procedure Details: cell-based or functional assay
Measured Attribute: EC50, HEK-Blue IL18R reporter assay (pM)
I only need the number, in pM, no unit after it.

Data request: Returns the measured EC50, HEK-Blue IL18R reporter assay for the input binder. Input: IL-18 polypeptide C184 (E6R, V11I, C38A, K53A, T63A, C76A, C127A) (ligand) YFGKLRSKLSIIRNLNDQVLFIDQGNRPLFEDMTDSDARDNAPRTIFIISMYADSQPRGMAVAISVKCEKISTLSAENKIISFKEMNPPDNIKDTKSDIIFFQRSVPGHDNKMQFESSSYEGYFLAAEKERDLFKLILKKEDELGDRSIMFTVQNED
Data returned: 0.04

Data request: How about this binder: IL-18 polypeptide C158 (V11I, C38A, K53A, C76A, G108A, C127A) (ligand) YFGKLESKLSIIRNLNDQVLFIDQGNRPLFEDMTDSDARDNAPRTIFIISMYADSQPRGMAVTISVKCEKISTLSAENKIISFKEMNPPDNIKDTKSDIIFFQRSVPAHDNKMQFESSSYEGYFLAAEKERDLFKLILKKEDELGDRSIMFTVQNED
Data returned: 15.6

Data request: How about this binder: IL-18 polypeptide C160 (V11I, C38A, K53A, C76A, D110A, C127A) (ligand) YFGKLESKLSIIRNLNDQVLFIDQGNRPLFEDMTDSDARDNAPRTIFIISMYADSQPRGMAVTISVKCEKISTLSAENKIISFKEMNPPDNIKDTKSDIIFFQRSVPGHANKMQFESSSYEGYFLAAEKERDLFKLILKKEDELGDRSIMFTVQNED
Data returned: 2.02

Data request: How about this binder: IL-18 polypeptide C144 (V11I, C38A, K53A, T63A, C76A, C127A) (ligand) YFGKLESKLSIIRNLNDQVLFIDQGNRPLFEDMTDSDARDNAPRTIFIISMYADSQPRGMAVAISVKCEKISTLSAENKIISFKEMNPPDNIKDTKSDIIFFQRSVPGHDNKMQFESSSYEGYFLAAEKERDLFKLILKKEDELGDRSIMFTVQNED
Data returned: 0.17

Data request: How about this binder: IL-18 polypeptide C166 (V11I, C38A, S55T, C76A, C127A) (ligand) YFGKLESKLSIIRNLNDQVLFIDQGNRPLFEDMTDSDARDNAPRTIFIISMYKDTQPRGMAVTISVKCEKISTLSAENKIISFKEMNPPDNIKDTKSDIIFFQRSVPGHDNKMQFESSSYEGYFLAAEKERDLFKLILKKEDELGDRSIMFTVQNED
Data returned: 4.73

Data request: How about this binder: IL-18 polypeptide C155 (V11I, C38A, D40A, K53A, C76A, C127A) (ligand) YFGKLESKLSIIRNLNDQVLFIDQGNRPLFEDMTDSDARANAPRTIFIISMYADSQPRGMAVTISVKCEKISTLSAENKIISFKEMNPPDNIKDTKSDIIFFQRSVPGHDNKMQFESSSYEGYFLAAEKERDLFKLILKKEDELGDRSIMFTVQNED
Data returned: 0.52

Data request: How about this binder: IL-18 polypeptide C161 (K8R, V11I, C38A, C76A, Q103E, C127A) (ligand) YFGKLESRLSIIRNLNDQVLFIDQGNRPLFEDMTDSDARDNAPRTIFIISMYKDSQPRGMAVTISVKCEKISTLSAENKIISFKEMNPPDNIKDTKSDIIFFERSVPGHDNKMQFESSSYEGYFLAAEKERDLFKLILKKEDELGDRSIMFTVQNED
Data returned: 2.01

Source: patent US20250186597A1
